Ref: paper PMC6213923

Molecular target: human-sourced α-glucosidase recombinant expressed in Saccharomyces cerevisiae
Test: α-glucosidase inhibitory assay (pNPG substrate)
Conditions: PBS pH 6.8, 37 °C, absorbance at 405 nm, preliminarily investigated, read-out: α-glucosidase inhibition IC50
MEASURED_PROPERTY: IC50 (µM)
Provide the reading as a plain figure in µM.

Study these solved cases before continuing.
COc1cc(O)c2c(=O)oc(CO)c(CO)c2c1 [Compound 9, tubakialactone B]
26
CC(=O)O[C@H]1[C@H](O)C[C@@]2(C)[C@@H](CC[C@@H](C)[C@]23Cc2c(cc(CO)c(C=O)c2O)O3)C1(C)C [Compound 2, Myrothecisin B]
660
CC(=O)O[C@H]1CC=C2[C@@H](CC[C@@H](C)[C@@]2(C)Cc2c(O)cc(CO)c(C=O)c2O)C1(C)C [Compound 3, Myrothecisin C]
58
COc1cc(O)c2c(=O)occ(C(O)CO)c2c1 (stereo not drawn) [Compound 5, Myrothelactone A]
320
C[C@H]1O[C@H](O[C@H]2[C@H](O)[C@@H](O)[C@@H](O[C@H]3[C@H](O)[C@@H](O)C(O)O[C@@H]3CO)O[C@@H]2CO)[C@H](O)[C@@H](O)[C@@H]1N[C@H]1C=C(CO)[C@@H](O)[C@H](O)[C@H]1O (stereo partly drawn) [acarbose, reference compound]
470

Give IC50 for C[C@@H]1CC[C@@H]2C(=CC[C@H](O)C2(C)C)[C@]1(C)Cc1c(O)cc(CO)c(C=O)c1O [Compound 4, Myrothecisin D]
200
